Origin of values: patent US20250296948A1

experiment-description: 6 month dry powder stability, HPLC assay
Format: physicochemical
applied-conditions: 25 ° C., 6 months
endpoint-label: HPLC assay (% w/w on anhydrous and solvent free basis) (% w/w)
Write it as a number; the unit % w/w goes unstated.

molecule: C[C@H](NP(=O)(OC[C@H]1O[C@@H](n2cc(F)c(=O)[nH]c2=O)CC1O)Oc1cccc2ccccc12)C(=O)OCc1ccccc1 (stereo partly shown) [Example 3, Batch 2]
observed: 100.7

molecule: C[C@H](NP(=O)(OC[C@H]1O[C@@H](n2cc(F)c(=O)[nH]c2=O)CC1O)Oc1cccc2ccccc12)C(=O)OCc1ccccc1 (stereo partly shown) [Example 3, Batch 3]
observed: 101.0

molecule: C[C@H](NP(=O)(OC[C@H]1O[C@@H](n2cc(F)c(=O)[nH]c2=O)CC1O)Oc1cccc2ccccc12)C(=O)OCc1ccccc1 (stereo partly shown) [Comparative Example 4]
observed: 99.6

Next molecule, HPLC assay (% w/w on anhydrous and solvent free basis) to be filled in.
-- ask Give its HPLC assay (% w/w on anhydrous and solvent free basis) value. Item: C[C@H](NP(=O)(OC[C@H]1O[C@@H](n2cc(F)c(=O)[nH]c2=O)CC1O)Oc1cccc2ccccc12)C(=O)OCc1ccccc1 (stereo partly shown) [Example 3, Batch 1]
-- reply 100.8

---

experiment-description: 6 month dry powder stability, Alpha Naphthol content by HPLC
Type: physicochemical
applied-conditions: 40 ° C., 0 months
# key: entry, value: Alpha Naphthol by HPLC (% w/w)
Write it as a number; the unit % w/w goes unstated.

The following compounds have reported results that may help.
compound: C[C@H](NP(=O)(OC[C@H]1O[C@@H](n2cc(F)c(=O)[nH]c2=O)CC1O)Oc1cccc2ccccc12)C(=O)OCc1ccccc1 (stereo partly shown) [Example 3, Batch 1]
observed: 0.15
--
compound: C[C@H](NP(=O)(OC[C@H]1O[C@@H](n2cc(F)c(=O)[nH]c2=O)CC1O)Oc1cccc2ccccc12)C(=O)OCc1ccccc1 (stereo partly shown) [Example 3, Batch 2]
observed: 0.44
--
compound: C[C@H](NP(=O)(OC[C@H]1O[C@@H](n2cc(F)c(=O)[nH]c2=O)CC1O)Oc1cccc2ccccc12)C(=O)OCc1ccccc1 (stereo partly shown) [Example 3, Batch 3]
observed: 0.18

Next compound, Alpha Naphthol by HPLC (% w/w) to be filled in.
-- ask Give its Alpha Naphthol by HPLC (% w/w) value. Item: C[C@H](NP(=O)(OC[C@H]1O[C@@H](n2cc(F)c(=O)[nH]c2=O)CC1O)Oc1cccc2ccccc12)C(=O)OCc1ccccc1 (stereo partly shown) [Comparative Example 4]
-- reply 0.09

---

experiment-description: 6 month dry powder stability, Alpha Naphthol content by HPLC
Assay type: physicochemical
applied-conditions: 40 ° C.
endpoint-label: Increase after 6 months, Alpha Naphthol by HPLC

compound: C[C@H](NP(=O)(OC[C@H]1O[C@@H](n2cc(F)c(=O)[nH]c2=O)CC1O)Oc1cccc2ccccc12)C(=O)OCc1ccccc1 (stereo partly shown) [Example 3, Batch 3]
observed: None
--
compound: C[C@H](NP(=O)(OC[C@H]1O[C@@H](n2cc(F)c(=O)[nH]c2=O)CC1O)Oc1cccc2ccccc12)C(=O)OCc1ccccc1 (stereo partly shown) [Example 3, Batch 2]
observed: None
--
compound: C[C@H](NP(=O)(OC[C@H]1O[C@@H](n2cc(F)c(=O)[nH]c2=O)CC1O)Oc1cccc2ccccc12)C(=O)OCc1ccccc1 (stereo partly shown) [Comparative Example 4]
observed: 1.11 % w/w
--
compound: C[C@H](NP(=O)(OC[C@H]1O[C@@H](n2cc(F)c(=O)[nH]c2=O)CC1O)Oc1cccc2ccccc12)C(=O)OCc1ccccc1 (stereo partly shown) [Example 3, Batch 1]
observed: None

---

# key: entry, value: Alpha Naphthol by HPLC (% w/w)
experiment-description: 6 month dry powder stability, Alpha Naphthol content by HPLC
Format: physicochemical
applied-conditions: 25 ° C., 3 months
Write it as a number; the unit % w/w goes unstated.

The following compounds have reported results that may help.
compound: C[C@H](NP(=O)(OC[C@H]1O[C@@H](n2cc(F)c(=O)[nH]c2=O)CC1O)Oc1cccc2ccccc12)C(=O)OCc1ccccc1 (stereo partly shown) [Example 3, Batch 1]
uom: % w/w
observed: 0.15

compound: C[C@H](NP(=O)(OC[C@H]1O[C@@H](n2cc(F)c(=O)[nH]c2=O)CC1O)Oc1cccc2ccccc12)C(=O)OCc1ccccc1 (stereo partly shown) [Comparative Example 4]
uom: % w/w
observed: 0.10

compound: C[C@H](NP(=O)(OC[C@H]1O[C@@H](n2cc(F)c(=O)[nH]c2=O)CC1O)Oc1cccc2ccccc12)C(=O)OCc1ccccc1 (stereo partly shown) [Example 3, Batch 2]
uom: % w/w
observed: 0.45

Next compound, Alpha Naphthol by HPLC (% w/w) to be filled in.
-- ask Give its Alpha Naphthol by HPLC (% w/w) value. Item: C[C@H](NP(=O)(OC[C@H]1O[C@@H](n2cc(F)c(=O)[nH]c2=O)CC1O)Oc1cccc2ccccc12)C(=O)OCc1ccccc1 (stereo partly shown) [Example 3, Batch 3]
-- reply 0.18

---

experiment-description: 6 month dry powder stability, Alpha Naphthol content by HPLC
Type: physicochemical
applied-conditions: 40 ° C., 6 months
# key: entry, value: Alpha Naphthol by HPLC (% w/w)
Write it as a number; the unit % w/w goes unstated.

The following compounds have reported results that may help.
compound: C[C@H](NP(=O)(OC[C@H]1O[C@@H](n2cc(F)c(=O)[nH]c2=O)CC1O)Oc1cccc2ccccc12)C(=O)OCc1ccccc1 (stereo partly shown) [Example 3, Batch 3]
endpoint-label: Alpha Naphthol by HPLC (% w/w)
uom: % w/w
observed: 0.15
//
compound: C[C@H](NP(=O)(OC[C@H]1O[C@@H](n2cc(F)c(=O)[nH]c2=O)CC1O)Oc1cccc2ccccc12)C(=O)OCc1ccccc1 (stereo partly shown) [Comparative Example 4]
endpoint-label: Alpha Naphthol by HPLC (% w/w)
uom: % w/w
observed: 1.2

-- ask Give its Alpha Naphthol by HPLC (% w/w) value. Item: C[C@H](NP(=O)(OC[C@H]1O[C@@H](n2cc(F)c(=O)[nH]c2=O)CC1O)Oc1cccc2ccccc12)C(=O)OCc1ccccc1 (stereo partly shown) [Example 3, Batch 1]
-- reply 0.13

-- ask Give its Alpha Naphthol by HPLC (% w/w) value. Item: C[C@H](NP(=O)(OC[C@H]1O[C@@H](n2cc(F)c(=O)[nH]c2=O)CC1O)Oc1cccc2ccccc12)C(=O)OCc1ccccc1 (stereo partly shown) [Example 3, Batch 2]
-- reply 0.38

---

experiment-description: 6 month dry powder stability, Alpha Naphthol content by HPLC
Type: physicochemical
applied-conditions: 40 ° C., 2 months
endpoint-label: Alpha Naphthol by HPLC (% w/w)
Write it as a number; the unit % w/w goes unstated.

The following compounds have reported results that may help.
compound: C[C@H](NP(=O)(OC[C@H]1O[C@@H](n2cc(F)c(=O)[nH]c2=O)CC1O)Oc1cccc2ccccc12)C(=O)OCc1ccccc1 (stereo partly shown) [Example 3, Batch 1]
Alpha Naphthol by HPLC (% w/w): 0.15

compound: C[C@H](NP(=O)(OC[C@H]1O[C@@H](n2cc(F)c(=O)[nH]c2=O)CC1O)Oc1cccc2ccccc12)C(=O)OCc1ccccc1 (stereo partly shown) [Comparative Example 4]
Alpha Naphthol by HPLC (% w/w): 0.27

compound: C[C@H](NP(=O)(OC[C@H]1O[C@@H](n2cc(F)c(=O)[nH]c2=O)CC1O)Oc1cccc2ccccc12)C(=O)OCc1ccccc1 (stereo partly shown) [Example 3, Batch 2]
Alpha Naphthol by HPLC (% w/w): 0.42

-- ask Give its Alpha Naphthol by HPLC (% w/w) value. Item: C[C@H](NP(=O)(OC[C@H]1O[C@@H](n2cc(F)c(=O)[nH]c2=O)CC1O)Oc1cccc2ccccc12)C(=O)OCc1ccccc1 (stereo partly shown) [Example 3, Batch 3]
-- reply 0.17

---

# key: entry, value: Alpha Naphthol by HPLC (% w/w)
experiment-description: 6 month dry powder stability, Alpha Naphthol content by HPLC
Format: physicochemical
applied-conditions: 25 ° C., 0 months
Write it as a number; the unit % w/w goes unstated.

molecule: C[C@H](NP(=O)(OC[C@H]1O[C@@H](n2cc(F)c(=O)[nH]c2=O)CC1O)Oc1cccc2ccccc12)C(=O)OCc1ccccc1 (stereo partly shown) [Comparative Example 4]
observed: 0.09

molecule: C[C@H](NP(=O)(OC[C@H]1O[C@@H](n2cc(F)c(=O)[nH]c2=O)CC1O)Oc1cccc2ccccc12)C(=O)OCc1ccccc1 (stereo partly shown) [Example 3, Batch 2]
observed: 0.44

-- ask Give its Alpha Naphthol by HPLC (% w/w) value. Item: C[C@H](NP(=O)(OC[C@H]1O[C@@H](n2cc(F)c(=O)[nH]c2=O)CC1O)Oc1cccc2ccccc12)C(=O)OCc1ccccc1 (stereo partly shown) [Example 3, Batch 1]
-- reply 0.15

-- ask Give its Alpha Naphthol by HPLC (% w/w) value. Item: C[C@H](NP(=O)(OC[C@H]1O[C@@H](n2cc(F)c(=O)[nH]c2=O)CC1O)Oc1cccc2ccccc12)C(=O)OCc1ccccc1 (stereo partly shown) [Example 3, Batch 3]
-- reply 0.18
